Biological target: Human recombinant Acetyl-CoA Carboxylase 2 (ACC2) (Homo sapiens)
Sequence (O00763 whole entry): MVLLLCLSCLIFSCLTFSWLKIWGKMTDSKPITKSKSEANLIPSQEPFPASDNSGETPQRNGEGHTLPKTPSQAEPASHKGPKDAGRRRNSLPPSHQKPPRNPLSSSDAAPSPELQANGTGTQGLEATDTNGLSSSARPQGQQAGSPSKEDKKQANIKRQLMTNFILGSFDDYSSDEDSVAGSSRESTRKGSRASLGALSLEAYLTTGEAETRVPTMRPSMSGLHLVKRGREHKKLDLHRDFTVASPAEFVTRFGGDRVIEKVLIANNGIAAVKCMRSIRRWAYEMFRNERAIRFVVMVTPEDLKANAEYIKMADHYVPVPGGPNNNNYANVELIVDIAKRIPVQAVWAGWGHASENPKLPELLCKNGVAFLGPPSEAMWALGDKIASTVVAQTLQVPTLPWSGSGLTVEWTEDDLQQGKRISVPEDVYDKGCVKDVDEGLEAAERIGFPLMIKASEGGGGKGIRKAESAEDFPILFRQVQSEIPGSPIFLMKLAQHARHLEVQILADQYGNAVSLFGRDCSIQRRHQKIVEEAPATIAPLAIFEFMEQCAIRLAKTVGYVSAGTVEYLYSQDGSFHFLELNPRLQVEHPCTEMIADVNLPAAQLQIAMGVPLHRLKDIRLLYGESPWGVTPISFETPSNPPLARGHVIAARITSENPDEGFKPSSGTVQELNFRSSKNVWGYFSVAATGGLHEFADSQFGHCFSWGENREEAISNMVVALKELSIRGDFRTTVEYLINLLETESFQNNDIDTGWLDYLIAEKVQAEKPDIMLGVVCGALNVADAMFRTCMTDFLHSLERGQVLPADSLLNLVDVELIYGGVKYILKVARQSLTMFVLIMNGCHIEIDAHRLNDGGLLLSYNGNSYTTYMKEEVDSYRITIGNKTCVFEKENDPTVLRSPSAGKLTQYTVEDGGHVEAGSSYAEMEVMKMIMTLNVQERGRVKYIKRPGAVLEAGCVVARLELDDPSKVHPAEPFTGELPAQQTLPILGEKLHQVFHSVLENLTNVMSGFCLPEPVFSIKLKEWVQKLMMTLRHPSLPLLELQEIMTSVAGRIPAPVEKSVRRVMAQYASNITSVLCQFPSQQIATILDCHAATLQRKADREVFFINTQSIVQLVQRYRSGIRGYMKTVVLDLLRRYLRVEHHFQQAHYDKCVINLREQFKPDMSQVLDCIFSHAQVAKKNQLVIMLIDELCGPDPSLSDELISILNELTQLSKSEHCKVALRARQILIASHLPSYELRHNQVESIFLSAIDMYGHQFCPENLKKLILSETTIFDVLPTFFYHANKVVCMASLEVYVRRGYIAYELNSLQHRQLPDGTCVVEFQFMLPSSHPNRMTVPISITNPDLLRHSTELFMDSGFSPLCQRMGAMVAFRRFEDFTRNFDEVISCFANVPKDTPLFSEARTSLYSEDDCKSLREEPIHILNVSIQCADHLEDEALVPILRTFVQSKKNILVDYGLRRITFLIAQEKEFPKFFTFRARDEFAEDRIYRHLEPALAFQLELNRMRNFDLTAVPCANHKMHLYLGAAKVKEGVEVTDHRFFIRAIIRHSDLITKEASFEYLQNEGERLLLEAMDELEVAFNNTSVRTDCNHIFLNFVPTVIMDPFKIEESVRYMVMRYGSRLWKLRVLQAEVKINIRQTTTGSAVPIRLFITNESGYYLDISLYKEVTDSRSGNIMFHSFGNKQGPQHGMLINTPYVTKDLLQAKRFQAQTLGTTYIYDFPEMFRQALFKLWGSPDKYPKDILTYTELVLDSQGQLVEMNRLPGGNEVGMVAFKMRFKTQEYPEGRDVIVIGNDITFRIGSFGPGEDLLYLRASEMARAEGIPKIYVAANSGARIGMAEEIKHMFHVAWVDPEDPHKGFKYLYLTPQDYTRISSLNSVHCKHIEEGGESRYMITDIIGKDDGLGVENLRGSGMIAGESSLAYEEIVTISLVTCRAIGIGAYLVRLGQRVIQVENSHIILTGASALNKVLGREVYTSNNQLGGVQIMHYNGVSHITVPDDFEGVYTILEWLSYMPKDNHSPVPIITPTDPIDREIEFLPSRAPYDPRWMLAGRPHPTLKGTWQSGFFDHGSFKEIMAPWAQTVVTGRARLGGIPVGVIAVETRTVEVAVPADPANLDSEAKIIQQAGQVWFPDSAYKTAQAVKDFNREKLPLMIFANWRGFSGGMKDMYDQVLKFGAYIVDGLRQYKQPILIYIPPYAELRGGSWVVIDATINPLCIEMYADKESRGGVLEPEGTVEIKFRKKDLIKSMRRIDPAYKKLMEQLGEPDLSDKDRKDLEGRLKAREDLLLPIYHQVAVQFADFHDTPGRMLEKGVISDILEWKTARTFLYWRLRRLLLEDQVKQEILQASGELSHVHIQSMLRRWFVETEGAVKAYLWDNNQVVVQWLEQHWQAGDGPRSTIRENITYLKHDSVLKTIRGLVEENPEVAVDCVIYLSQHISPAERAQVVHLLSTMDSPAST
Assay: Assay X: ACC2 inhibition, inorganic phosphate (malachite green)
Assay type: biochemical
Details: Assay X: 37° C., 1.5 h, 5 min pre-incubation
pIC50: −log10 of the molar value.
Class yes: pIC50 at least 6. Class no: pIC50 below 6.

| Compound | Cat |
| --- | --- |
| CN(C)C(=O)COC1CCN(c2cc(C(=O)NC[C@H]3CC[C@H](CNC(=O)OC(C)(C)C)CC3)c3ccccc3n2)CC1 [Example 210] | no |
| Cc1nc(CNc2ccc(-c3cc(C(=O)NC[C@H]4CC[C@H](CNC(=O)OC(C)(C)C)CC4)c4ccccc4n3)cn2)no1 [Example 170] | yes |
| CC(C)(C)OC(=O)NC[C@H]1CC[C@H](CNC(=O)c2cc(N3CCC(CC(O)CN4CCOCC4)CC3)nc3ccccc23)CC1 (single isomer, unassigned) [Example 208] | yes |
| CN1CCN(c2ccc(-c3cc(C(=O)NC[C@H]4CC[C@H](CNC(=O)OCCC#N)CC4)c4ccccc4n3)cn2)CC1 [Example 132] | no |
| CCNC(=O)Nc1sc2ccccc2c1C(=O)NC[C@H]1CC[C@H](CNC(=O)OC(C)(C)C)CC1 [Example 223] | yes |

input: hey, is pIC50 for this one >= 6? CC(C)(C)OC(=O)NC[C@H]1CC[C@H](CNC(=O)c2cc(-c3ccc(N4CCCC(O)C4)nc3)nc3ccccc23)CC1 (relative stereo) [Example 157]
output: yes

input: Does the reported pIC50 for CC(C)(C)OC(=O)NC[C@H]1CC[C@H](CNC(=O)c2cc(-c3ccc(N4CCOC(CO)C4)nc3)nc3ccccc23)CC1 (relative stereo) [Example 171] fall at or above the 6 mark?
output: yes

input: # bool: pIC50 of CC(C)(C)OC(=O)NC[C@H]1CC[C@H](CNC(=O)c2cc(-c3cnn(CCO)c3)nc3ccccc23)CC1 [Example 243] >= 6
output: yes

input: Entry CN(CCF)CCC1CCN(c2cc(C(=O)NC[C@H]3CC[C@H](CNC(=O)OC(C)(C)C)CC3)c3ccccc3n2)CC1 [Example 245] : is its pIC50 no less than 6?
output: yes

input: Determine whether this compound has pIC50 no lower than 6: CC(C)(C)OC(=O)NC[C@H]1CC[C@H](CNC(=O)c2cc(-c3ccc(N4CCC[C@H]4C(N)=O)nc3)nc3ccccc23)CC1 [Example 163]
output: yes
